# measurementTarget: hERG Y652A (Homo sapiens, UniProt Q12809, Y652A)
# Sequence (Q12809 whole entry Y652A): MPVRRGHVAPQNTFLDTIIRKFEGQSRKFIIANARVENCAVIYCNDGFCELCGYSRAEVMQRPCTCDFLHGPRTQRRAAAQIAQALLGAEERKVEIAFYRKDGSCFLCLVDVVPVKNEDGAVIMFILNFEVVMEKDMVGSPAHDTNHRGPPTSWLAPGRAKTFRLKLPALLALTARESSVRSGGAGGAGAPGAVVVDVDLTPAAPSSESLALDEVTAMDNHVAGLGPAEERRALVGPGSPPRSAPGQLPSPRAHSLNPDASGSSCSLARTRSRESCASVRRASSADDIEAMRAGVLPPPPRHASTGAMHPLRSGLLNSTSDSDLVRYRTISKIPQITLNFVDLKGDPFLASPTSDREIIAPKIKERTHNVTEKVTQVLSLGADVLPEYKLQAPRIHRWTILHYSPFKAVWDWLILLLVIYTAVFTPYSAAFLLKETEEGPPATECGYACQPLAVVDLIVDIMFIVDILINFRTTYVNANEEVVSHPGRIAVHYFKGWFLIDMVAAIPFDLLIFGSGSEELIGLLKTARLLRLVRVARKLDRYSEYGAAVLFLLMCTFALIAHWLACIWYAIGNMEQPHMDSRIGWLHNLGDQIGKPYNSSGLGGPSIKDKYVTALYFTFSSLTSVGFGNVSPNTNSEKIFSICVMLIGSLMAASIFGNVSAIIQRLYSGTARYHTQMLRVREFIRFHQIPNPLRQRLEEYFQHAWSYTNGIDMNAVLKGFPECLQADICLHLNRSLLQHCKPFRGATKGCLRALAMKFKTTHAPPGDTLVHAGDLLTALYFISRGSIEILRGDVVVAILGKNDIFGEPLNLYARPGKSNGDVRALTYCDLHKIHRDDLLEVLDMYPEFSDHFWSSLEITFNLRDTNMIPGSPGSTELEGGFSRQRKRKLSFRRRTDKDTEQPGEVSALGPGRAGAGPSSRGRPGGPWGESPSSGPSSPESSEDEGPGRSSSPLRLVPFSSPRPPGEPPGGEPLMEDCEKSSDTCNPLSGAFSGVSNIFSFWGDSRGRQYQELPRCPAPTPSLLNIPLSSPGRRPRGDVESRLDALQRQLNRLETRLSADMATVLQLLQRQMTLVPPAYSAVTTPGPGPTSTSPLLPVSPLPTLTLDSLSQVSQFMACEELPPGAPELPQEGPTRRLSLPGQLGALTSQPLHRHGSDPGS
# measurementNotes: Whole-cell patch clamp (automated), HEK cells stably expressing hERGY652A

{"molecule": "CCOc1cc(N)c(Cl)cc1C(=O)NCC1CN(Cc2ccc(F)cc2)CCO1 (stereo not shown) [Mosapride]", "IC50 [µM]": 17.4}

----------
# measurementTarget: hERG WT (Homo sapiens, UniProt Q12809)
# Sequence (Q12809 whole entry): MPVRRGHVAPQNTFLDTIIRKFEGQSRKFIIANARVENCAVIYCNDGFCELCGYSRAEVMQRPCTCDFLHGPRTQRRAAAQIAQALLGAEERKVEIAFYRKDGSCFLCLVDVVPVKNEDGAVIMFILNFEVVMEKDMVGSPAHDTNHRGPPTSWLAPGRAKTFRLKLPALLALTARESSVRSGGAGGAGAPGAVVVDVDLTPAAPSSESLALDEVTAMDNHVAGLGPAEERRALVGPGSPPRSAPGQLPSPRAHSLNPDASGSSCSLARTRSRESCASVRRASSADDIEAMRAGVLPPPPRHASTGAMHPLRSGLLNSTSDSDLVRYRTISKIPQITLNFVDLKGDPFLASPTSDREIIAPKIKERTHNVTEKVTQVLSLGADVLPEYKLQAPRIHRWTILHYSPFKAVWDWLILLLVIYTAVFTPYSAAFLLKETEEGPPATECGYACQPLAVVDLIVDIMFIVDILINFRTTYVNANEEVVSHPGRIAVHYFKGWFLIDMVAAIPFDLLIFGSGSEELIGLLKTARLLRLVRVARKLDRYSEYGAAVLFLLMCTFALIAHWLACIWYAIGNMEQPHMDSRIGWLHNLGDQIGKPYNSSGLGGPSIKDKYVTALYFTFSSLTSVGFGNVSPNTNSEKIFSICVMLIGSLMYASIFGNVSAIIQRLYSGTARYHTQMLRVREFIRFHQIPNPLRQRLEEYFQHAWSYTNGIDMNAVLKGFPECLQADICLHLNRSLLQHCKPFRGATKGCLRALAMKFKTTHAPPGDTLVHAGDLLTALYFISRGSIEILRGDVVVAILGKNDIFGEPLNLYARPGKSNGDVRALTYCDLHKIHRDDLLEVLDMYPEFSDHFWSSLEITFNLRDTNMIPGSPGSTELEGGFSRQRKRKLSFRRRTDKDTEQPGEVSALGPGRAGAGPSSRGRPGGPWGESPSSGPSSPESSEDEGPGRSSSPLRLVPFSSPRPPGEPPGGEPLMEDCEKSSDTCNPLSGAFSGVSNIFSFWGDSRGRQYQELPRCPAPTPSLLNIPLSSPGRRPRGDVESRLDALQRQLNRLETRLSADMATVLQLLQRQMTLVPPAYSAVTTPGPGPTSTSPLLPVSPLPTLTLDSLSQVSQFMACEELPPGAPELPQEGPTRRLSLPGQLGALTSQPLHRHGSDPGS
# testParameters: human, HEK cells stably expressing hERG WT, Percent current inhibition hERG WT, 300 µM

{"compound": "COc1ccccc1OCC(O)CN1CCN(CC(=O)Nc2c(C)cccc2C)CC1 (stereo not shown)", "inhibition at 300 µM, %": 100}

----------
# measurementTarget: hERG F656A (Homo sapiens, UniProt Q12809, F656A)
# Sequence (Q12809 whole entry F656A): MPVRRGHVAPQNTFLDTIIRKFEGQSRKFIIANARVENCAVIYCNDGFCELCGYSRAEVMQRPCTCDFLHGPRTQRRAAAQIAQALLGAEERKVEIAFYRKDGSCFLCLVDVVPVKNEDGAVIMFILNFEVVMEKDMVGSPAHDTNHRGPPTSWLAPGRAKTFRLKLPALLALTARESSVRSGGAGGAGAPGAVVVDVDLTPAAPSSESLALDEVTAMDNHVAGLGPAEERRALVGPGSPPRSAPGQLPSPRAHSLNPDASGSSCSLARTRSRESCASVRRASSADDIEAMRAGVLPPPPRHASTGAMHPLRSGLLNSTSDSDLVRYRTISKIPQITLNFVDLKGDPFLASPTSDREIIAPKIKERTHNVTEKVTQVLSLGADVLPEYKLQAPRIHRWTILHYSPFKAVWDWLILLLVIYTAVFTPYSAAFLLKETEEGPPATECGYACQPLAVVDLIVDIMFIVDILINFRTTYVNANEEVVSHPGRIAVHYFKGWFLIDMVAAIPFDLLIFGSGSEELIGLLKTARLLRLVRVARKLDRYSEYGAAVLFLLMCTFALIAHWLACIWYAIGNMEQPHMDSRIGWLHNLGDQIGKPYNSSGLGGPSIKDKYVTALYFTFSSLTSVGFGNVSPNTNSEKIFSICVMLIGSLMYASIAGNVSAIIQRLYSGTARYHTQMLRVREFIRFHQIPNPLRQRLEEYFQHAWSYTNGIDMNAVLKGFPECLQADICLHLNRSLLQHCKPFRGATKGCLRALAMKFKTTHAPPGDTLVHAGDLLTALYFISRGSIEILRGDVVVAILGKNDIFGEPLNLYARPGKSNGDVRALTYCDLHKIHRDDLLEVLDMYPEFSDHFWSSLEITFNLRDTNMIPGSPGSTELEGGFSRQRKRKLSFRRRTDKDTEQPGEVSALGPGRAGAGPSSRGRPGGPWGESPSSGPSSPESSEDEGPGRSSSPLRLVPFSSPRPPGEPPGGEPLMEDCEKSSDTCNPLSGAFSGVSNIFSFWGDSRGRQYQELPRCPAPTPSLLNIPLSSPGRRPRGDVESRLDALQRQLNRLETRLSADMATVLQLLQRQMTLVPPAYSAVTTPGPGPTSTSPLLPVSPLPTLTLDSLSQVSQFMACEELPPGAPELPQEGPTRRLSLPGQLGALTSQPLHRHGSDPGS
# measurementNotes: in vitro
# testParameters: pH 7.4, Percent current inhibition hERG F656A

{"compound": "CCOc1cc(N)c(Cl)cc1C(=O)NCC1CN(Cc2ccc(F)cc2)CCO1 (stereo not shown) [Mosapride]", "measurementTarget": "hERG F656A (Homo sapiens, UniProt Q12809, F656A)", "inhibition at 1 µM": "11%"}

----------
# measurementTarget: hERG WT (Homo sapiens)
measure: IC50 (µM)

{"compound": "CCOc1cc(N)c(Cl)cc1C(=O)NCC1CN(Cc2ccc(F)cc2)CCO1 (stereo not shown) [Mosapride]", "outputUnit": "µM", "numericReadout": 5.36}

----------
# measurementTarget: UniProt Q12809
# measurementNotes: in vitro
# testParameters: Percent current inhibition hERG WT

{"compound": "CCOc1cc(N)c(Cl)cc1C(=O)NCC1CN(Cc2ccc(F)cc2)CCO1 (stereo not shown) [Mosapride]", "measurementTarget": "UniProt Q12809", "inhibition at 10 µM, %": 68.7}

----------
# measurementTarget: hERG Y652A (Homo sapiens, UniProt Q12809, Y652A)
# measurementNotes: Whole-cell patch clamp (automated), HEK cells stably expressing hERGY652A
# testParameters: human, HEK cells stably expressing hERG Y652A, pH 7.4, Percent current inhibition hERG Y652A, 300 µM
measure: inhibition at 300 µM (%)

{"compound": "COc1ccccc1OCC(O)CN1CCN(CC(=O)Nc2c(C)cccc2C)CC1 (stereo not shown)", "measure": "inhibition at 300 µM", "numericReadout": 64}

----------
# measurementTarget: hERG F656A (Homo sapiens, UniProt Q12809, F656A)
# measurementNotes: Whole-cell patch clamp (manual, 135 mM K+), HEK cells stably expressing hERGF656A
# testParameters: human, HEK cells stably expressing hERG F656A, pH 7.4, Percent current inhibition hERG F656A, 30 µM

{"molecule": "COc1ccccc1OCC(O)CN1CCN(CC(=O)Nc2c(C)cccc2C)CC1 (stereo not shown)", "outputUnit": "%", "inhibition at 30 µM": 10.9}

----------
# measurementTarget: hERG F656A (Homo sapiens, UniProt Q12809, F656A)
# measurementNotes: in vitro
# testParameters: pH 7.4, Percent current inhibition hERG F656A

{"compound": "CCOc1cc(N)c(Cl)cc1C(=O)NCC1CN(Cc2ccc(F)cc2)CCO1 (centres unmarked) [Mosapride]", "inhibition at 10 µM [%]": 25.7}
{"compound": "COc1cc(N)c(Cl)cc1C(=O)NC1CCN(CCCOc2ccc(F)cc2)CC1OC (centres unmarked) [Cisapride]", "inhibition at 10 µM [%]": 75.5}

----------
# measurementTarget: hERG WT (Homo sapiens)
# measurementNotes: in vitro
# testParameters: Percent current inhibition hERG WT

{"compound": "CCOc1cc(N)c(Cl)cc1C(=O)NCC1CN(Cc2ccc(F)cc2)CCO1 (stereo not shown) [Mosapride]", "outputUnit": "%", "inhibition at 3 µM": 33.5}

----------
# measurementTarget: hERG F656A (Homo sapiens, UniProt Q12809, F656A)
# measurementNotes: Whole-cell patch clamp (manual, 135 mM K+), HEK cells stably expressing hERGF656A
# testParameters: human, HEK cells stably expressing hERG F656A, pH 7.4, Percent current inhibition hERG F656A, 10 µM

{"molecule": "COc1ccccc1OCC(O)CN1CCN(CC(=O)Nc2c(C)cccc2C)CC1 (stereo not shown)", "inhibition at 10 µM [%]": 4.39}

----------
// reported inhibition at 5 µM for each item listed
# measurementTarget: hERG Y652A (Homo sapiens, UniProt Q12809, Y652A)
# measurementNotes: in vitro
# testParameters: pH 7.4, Percent current inhibition hERG Y652A

{"compound": "CCOc1cc(N)c(Cl)cc1C(=O)NCC1CN(Cc2ccc(F)cc2)CCO1 (centres unmarked) [Mosapride]", "measurementTarget": "hERG Y652A (Homo sapiens, UniProt Q12809, Y652A)", "outputUnit": "%", "inhibition at 5 µM": 20.6}
{"compound": "COc1cc(N)c(Cl)cc1C(=O)NC1CCN(CCCOc2ccc(F)cc2)CC1OC (centres unmarked) [Cisapride]", "measurementTarget": "hERG Y652A (Homo sapiens, UniProt Q12809, Y652A)", "outputUnit": "%", "inhibition at 5 µM": 57.7}

----------
# measurementTarget: hERG F656A (Homo sapiens, UniProt Q12809, F656A)
# measurementNotes: in vitro
# testParameters: pH 7.4, reduction in the inhibition of F656A mutant when compared to the WT

{"compound": "CCOc1cc(N)c(Cl)cc1C(=O)NCC1CN(Cc2ccc(F)cc2)CCO1 (centres unmarked) [Mosapride]", "outputUnit": "%", "inhibition at 1 µM": 2}

----------
# measurementTarget: hERG Y652A (Homo sapiens, UniProt Q12809, Y652A)
# measurementNotes: Whole-cell patch clamp (automated), HEK cells stably expressing hERGY652A
# testParameters: human, HEK cells stably expressing hERG Y652A, pH 7.4, Percent current inhibition hERG Y652A, 30 µM
measure: inhibition at 30 µM (%)

{"molecule": "COc1ccccc1OCC(O)CN1CCN(CC(=O)Nc2c(C)cccc2C)CC1 (stereo not shown)", "numericReadout": 10.1}

----------
# measurementTarget: UniProt Q12809
# testParameters: human, HEK cells stably expressing hERG WT, Percent current inhibition hERG WT, 100 µM

{"compound": "COc1ccccc1OCC(O)CN1CCN(CC(=O)Nc2c(C)cccc2C)CC1 (stereo not shown) [Ranolazine]", "inhibition at 100 µM": "~90%"}

----------
# measurementTarget: hERG F656A (Homo sapiens, UniProt Q12809, F656A)
# measurementNotes: Whole-cell patch clamp (manual, 135 mM K+), HEK cells stably expressing hERGF656A
# testParameters: human, HEK cells stably expressing hERG F656A, pH 7.4, Percent current inhibition hERG F656A, 500 µM

{"compound": "COc1ccccc1OCC(O)CN1CCN(CC(=O)Nc2c(C)cccc2C)CC1 (stereo not shown) [Ranolazine]", "measurementTarget": "hERG F656A (Homo sapiens, UniProt Q12809, F656A)", "inhibition at 500 µM, %": 49.6}

----------
# measurementTarget: hERG Y652A (Homo sapiens, UniProt Q12809, Y652A)
# measurementNotes: Whole-cell patch clamp (automated), HEK cells stably expressing hERGY652A
# testParameters: human, HEK cells stably expressing hERG Y652A, pH 7.4, Percent current inhibition hERG Y652A, 10 µM
measure: inhibition at 10 µM (%)

{"compound": "COc1ccccc1OCC(O)CN1CCN(CC(=O)Nc2c(C)cccc2C)CC1 (stereo not shown)", "outputUnit": "%", "numericReadout": 2.4}

----------
# measurementTarget: hERG Y652A (Homo sapiens, UniProt Q12809, Y652A)
# measurementNotes: in vitro
# testParameters: pH 7.4, Percent current inhibition hERG Y652A

{"compound": "COc1cc(N)c(Cl)cc1C(=O)NC1CCN(CCCOc2ccc(F)cc2)CC1OC (centres unmarked) [Cisapride]", "inhibition at 3 µM / %": 39.1}
{"compound": "CCOc1cc(N)c(Cl)cc1C(=O)NCC1CN(Cc2ccc(F)cc2)CCO1 (centres unmarked) [Mosapride]", "inhibition at 3 µM / %": 13.6}

----------
# measurementTarget: hERG F656A (Homo sapiens, UniProt Q12809, F656A)
# measurementNotes: in vitro
# testParameters: pH 7.4, Percent current inhibition hERG F656A

{"compound": "CCOc1cc(N)c(Cl)cc1C(=O)NCC1CN(Cc2ccc(F)cc2)CCO1 (stereo not shown) [Mosapride]", "measurementTarget": "hERG F656A (Homo sapiens, UniProt Q12809, F656A)", "outputUnit": "%", "inhibition at 100 µM": 40.2}

----------
# measurementTarget: hERG Y652A (Homo sapiens, UniProt Q12809, Y652A)
# measurementNotes: Whole-cell patch clamp (automated), HEK cells stably expressing hERGY652A
# testParameters: human, HEK cells stably expressing hERG Y652A, pH 7.4, Percent current inhibition hERG Y652A, 100 µM
measure: inhibition at 100 µM (%)

{"molecule": "COc1ccccc1OCC(O)CN1CCN(CC(=O)Nc2c(C)cccc2C)CC1 (stereo not shown)", "measurementTarget": "hERG Y652A (Homo sapiens, UniProt Q12809, Y652A)", "measure": "inhibition at 100 µM", "numericReadout": 25}
